Reference source for all entries: patent US20250215072A1

Target: hLRRC33-proTGFβ1 presented on cells (human, UniProt P01137 30-390; Q86YC3 19-692)
Sequence (P01137 30-390 limits assumed, chain 1 of 2): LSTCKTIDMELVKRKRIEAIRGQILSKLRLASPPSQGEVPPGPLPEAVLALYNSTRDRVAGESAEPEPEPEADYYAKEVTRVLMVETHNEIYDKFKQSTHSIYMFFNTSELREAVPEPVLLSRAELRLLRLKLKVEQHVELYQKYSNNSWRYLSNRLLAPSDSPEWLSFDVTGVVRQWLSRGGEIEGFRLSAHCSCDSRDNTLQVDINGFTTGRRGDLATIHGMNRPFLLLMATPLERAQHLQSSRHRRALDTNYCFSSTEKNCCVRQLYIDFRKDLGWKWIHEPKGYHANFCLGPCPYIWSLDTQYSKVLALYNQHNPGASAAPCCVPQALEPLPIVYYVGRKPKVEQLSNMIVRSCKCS
Sequence (Q86YC3 19-692 limits assumed, chain 2 of 2): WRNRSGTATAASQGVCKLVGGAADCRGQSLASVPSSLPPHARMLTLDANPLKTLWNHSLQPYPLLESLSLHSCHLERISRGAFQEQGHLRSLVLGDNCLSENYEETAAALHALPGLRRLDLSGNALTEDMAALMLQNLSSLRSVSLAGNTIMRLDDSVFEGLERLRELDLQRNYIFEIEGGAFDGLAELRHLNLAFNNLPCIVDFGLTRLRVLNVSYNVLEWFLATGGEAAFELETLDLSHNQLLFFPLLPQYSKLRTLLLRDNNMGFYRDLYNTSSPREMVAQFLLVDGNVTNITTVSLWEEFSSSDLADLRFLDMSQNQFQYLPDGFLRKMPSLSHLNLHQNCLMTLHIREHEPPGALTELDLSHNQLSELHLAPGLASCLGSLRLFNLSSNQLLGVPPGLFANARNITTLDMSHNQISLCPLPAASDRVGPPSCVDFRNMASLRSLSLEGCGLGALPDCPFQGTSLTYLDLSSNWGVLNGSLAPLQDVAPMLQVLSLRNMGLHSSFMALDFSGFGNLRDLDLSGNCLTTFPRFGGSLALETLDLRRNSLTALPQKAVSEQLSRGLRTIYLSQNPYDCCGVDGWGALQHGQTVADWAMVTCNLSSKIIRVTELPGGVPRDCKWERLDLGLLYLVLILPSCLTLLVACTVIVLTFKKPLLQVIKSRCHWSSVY
Experiment: cell-based or functional assay
Listing of recorded IC50, reporter cell assay by entry.

BINDER	IC50, reporter cell assay / nM
Ab12 (antibody, IgG4, V domains shown) VH: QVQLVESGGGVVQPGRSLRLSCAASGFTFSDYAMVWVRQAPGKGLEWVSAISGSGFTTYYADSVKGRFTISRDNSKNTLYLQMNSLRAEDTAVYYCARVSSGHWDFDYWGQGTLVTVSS VL: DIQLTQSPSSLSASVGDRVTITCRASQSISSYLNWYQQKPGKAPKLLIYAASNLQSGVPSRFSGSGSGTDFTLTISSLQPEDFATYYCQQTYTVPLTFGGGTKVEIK	2.43
Ab19 (antibody, IgG4, V domains shown) VH: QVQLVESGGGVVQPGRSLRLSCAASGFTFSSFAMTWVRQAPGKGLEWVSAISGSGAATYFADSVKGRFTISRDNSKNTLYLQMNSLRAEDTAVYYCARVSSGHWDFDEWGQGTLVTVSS VL: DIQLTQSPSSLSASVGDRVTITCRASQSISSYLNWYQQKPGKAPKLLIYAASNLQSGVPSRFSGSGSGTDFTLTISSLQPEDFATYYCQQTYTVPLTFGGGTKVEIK	0.401
Ab4 (antibody, IgG4, V domains shown, parent of Ab6) VH: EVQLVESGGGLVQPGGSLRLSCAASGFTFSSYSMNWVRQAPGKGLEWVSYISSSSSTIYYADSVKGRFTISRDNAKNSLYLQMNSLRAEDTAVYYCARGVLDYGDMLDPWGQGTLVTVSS VL: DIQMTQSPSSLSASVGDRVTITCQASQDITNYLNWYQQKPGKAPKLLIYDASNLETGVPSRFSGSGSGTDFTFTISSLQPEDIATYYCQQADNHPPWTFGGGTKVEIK	3.5
Ab5 (antibody, V domains shown) VH: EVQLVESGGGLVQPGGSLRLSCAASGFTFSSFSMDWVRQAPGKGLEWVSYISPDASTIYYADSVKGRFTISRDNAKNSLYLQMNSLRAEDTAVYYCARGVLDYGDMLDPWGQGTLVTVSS VL: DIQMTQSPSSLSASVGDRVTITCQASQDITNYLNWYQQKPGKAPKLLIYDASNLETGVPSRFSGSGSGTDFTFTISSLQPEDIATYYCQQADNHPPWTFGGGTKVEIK	0.616
Ab6 (antibody, V domains shown) VH: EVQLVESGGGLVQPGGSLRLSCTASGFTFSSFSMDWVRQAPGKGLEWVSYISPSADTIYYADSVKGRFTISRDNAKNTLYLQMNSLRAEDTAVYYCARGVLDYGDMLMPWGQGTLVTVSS VL: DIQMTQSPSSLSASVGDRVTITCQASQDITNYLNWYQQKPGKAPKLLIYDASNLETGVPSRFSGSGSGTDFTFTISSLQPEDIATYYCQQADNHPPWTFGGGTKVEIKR	0.495
Ab1 (antibody, V domains shown) VH: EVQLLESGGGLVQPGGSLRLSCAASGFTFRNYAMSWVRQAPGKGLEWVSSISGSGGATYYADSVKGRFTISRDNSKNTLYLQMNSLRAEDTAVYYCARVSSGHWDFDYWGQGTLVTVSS VL: DIQLTQSPSSLSASVGDRVTITCQASQDISNFLNWYQQKPGKAPKLLIYDASNLETGVPSRFSGSGSGTDFTFTISSLQPEDIATYYCQQVFNPPLTFGGGTKVEIK	5.37
Ab11 (antibody, IgG4, V domains shown) VH: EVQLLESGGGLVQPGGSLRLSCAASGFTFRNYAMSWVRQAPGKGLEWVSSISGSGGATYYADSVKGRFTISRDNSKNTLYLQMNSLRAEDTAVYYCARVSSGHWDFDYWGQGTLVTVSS VL: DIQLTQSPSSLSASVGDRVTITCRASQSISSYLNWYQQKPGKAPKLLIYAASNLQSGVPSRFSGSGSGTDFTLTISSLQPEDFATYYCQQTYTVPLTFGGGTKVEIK	1.27
Ab2 (antibody, V domains shown) VH: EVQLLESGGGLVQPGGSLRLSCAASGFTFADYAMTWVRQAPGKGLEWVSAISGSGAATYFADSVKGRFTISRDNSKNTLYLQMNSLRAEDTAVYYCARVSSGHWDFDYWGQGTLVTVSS VL: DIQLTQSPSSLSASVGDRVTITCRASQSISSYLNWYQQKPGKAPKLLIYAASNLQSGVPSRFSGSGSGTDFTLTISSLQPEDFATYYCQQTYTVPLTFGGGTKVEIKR	1.38
Ab33 (antibody, IgG4, V domains shown) VH: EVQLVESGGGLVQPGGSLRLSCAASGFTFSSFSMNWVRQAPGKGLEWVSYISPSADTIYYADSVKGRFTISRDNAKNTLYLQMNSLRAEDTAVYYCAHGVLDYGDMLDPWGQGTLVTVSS VL: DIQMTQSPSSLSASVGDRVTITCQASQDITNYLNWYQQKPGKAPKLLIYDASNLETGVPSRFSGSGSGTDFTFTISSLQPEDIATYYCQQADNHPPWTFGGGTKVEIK	0.738
Ab20 (antibody, IgG4, V domains shown) VH: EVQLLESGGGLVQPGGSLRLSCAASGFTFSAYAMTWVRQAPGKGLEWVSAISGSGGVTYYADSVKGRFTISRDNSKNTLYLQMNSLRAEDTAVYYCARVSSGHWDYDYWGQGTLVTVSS VL: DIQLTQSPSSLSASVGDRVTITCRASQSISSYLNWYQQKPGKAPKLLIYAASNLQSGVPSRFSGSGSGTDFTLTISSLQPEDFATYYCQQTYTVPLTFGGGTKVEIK	1.35
